target: MRP2 (Homo sapiens); construct: expressed in transfected cells; host or cells: MDCK II; assay: Transport of baicalin across MDCK II-MRP2 cell monolayer (transwell); type: in vitro ADME; settings: pH 7.4, MDCK II-MRP2, 100 μM BG + 1% PEG400
Sequence (Q92887 whole entry): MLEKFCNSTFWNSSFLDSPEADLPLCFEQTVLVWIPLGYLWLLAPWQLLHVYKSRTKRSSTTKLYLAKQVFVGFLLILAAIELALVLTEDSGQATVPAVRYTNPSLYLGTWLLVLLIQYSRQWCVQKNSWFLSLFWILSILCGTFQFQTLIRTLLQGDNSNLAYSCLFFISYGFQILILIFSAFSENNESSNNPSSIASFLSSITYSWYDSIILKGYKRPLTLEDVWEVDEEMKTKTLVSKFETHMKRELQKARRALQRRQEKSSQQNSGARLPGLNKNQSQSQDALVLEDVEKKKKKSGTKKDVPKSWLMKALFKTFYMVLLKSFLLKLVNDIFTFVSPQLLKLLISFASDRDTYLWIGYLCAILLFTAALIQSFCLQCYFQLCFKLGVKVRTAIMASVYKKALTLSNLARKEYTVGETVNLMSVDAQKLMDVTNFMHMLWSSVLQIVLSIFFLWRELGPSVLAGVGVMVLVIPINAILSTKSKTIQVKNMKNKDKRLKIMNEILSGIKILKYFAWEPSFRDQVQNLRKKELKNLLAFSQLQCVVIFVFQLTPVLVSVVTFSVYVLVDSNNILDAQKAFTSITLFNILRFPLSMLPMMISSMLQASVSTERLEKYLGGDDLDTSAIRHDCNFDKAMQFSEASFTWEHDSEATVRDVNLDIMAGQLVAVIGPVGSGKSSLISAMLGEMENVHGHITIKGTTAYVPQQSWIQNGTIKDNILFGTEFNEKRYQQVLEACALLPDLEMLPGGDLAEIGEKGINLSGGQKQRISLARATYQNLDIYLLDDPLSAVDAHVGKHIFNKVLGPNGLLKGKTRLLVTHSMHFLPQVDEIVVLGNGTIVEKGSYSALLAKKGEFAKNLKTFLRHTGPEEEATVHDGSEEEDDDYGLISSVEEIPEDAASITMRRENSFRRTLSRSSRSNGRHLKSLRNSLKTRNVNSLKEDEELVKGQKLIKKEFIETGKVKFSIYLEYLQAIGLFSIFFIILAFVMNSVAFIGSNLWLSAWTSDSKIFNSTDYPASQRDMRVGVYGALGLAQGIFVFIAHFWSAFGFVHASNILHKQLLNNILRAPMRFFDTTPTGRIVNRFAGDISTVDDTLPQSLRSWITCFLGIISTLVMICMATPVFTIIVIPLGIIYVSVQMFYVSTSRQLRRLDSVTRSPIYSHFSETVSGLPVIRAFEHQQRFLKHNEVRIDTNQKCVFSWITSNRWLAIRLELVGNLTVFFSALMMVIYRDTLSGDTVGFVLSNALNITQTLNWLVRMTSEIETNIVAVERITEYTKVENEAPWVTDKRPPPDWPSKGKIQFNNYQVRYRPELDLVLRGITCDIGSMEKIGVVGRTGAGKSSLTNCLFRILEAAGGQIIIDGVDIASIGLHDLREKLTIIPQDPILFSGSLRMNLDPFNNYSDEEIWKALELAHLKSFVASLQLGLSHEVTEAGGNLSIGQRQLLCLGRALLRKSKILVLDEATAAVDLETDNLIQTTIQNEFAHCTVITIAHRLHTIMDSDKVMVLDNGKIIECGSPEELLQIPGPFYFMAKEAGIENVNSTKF
Value Type: Papp A→B at 120 min, 100 μM (×10⁻⁶ cm/s)

| Compound | Scale Unit | Measurement |
| --- | --- | --- |
| O=C(O)[C@H]1O[C@@H](Oc2cc3oc(-c4ccccc4)cc(=O)c3c(O)c2O)[C@H](O)[C@@H](O)[C@@H]1O [BG, Baicalein-7-O-β-D-glucuronide] | ×10⁻⁶ cm/s | 3.17 |
